assay: chemical genetic growth profiling, strain panel (AID 1159580);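 also: tested at 20 µM; growth read once vehicle control cultures reached saturation at 30 °C; 1 = growth at the plate median or of vehicle wells; lower values mean less growth of the strain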; settings: S. cerevisiae deletion strains, growth OD, locus YIR030C, strain dcg1, hits give low values
Screen size: about 5,500 compounds; about 2,000 (36%) were called active. Not shown: some 18% with an inconclusive outcome. The list shows a part of the results.
assay-readout: normalized growth
Answer with a bare number; do not write a unit.

Answered examples (8):
[[record]]
compound = "O=c1c(O)c(-c2ccccc2)oc2cc(O)ccc12"
assay_readout = "normalized growth"
quantitative_readout = 0.858

[[record]]
compound = "O=c1c(O)c(-c2ccccc2)oc2ccccc12"
assay_readout = "normalized growth"
quantitative_readout = 0.998

[[record]]
compound = "CNC(=O)N(C)c1nnc(C(C)(C)C)s1"
assay_readout = "normalized growth"
quantitative_readout = 1.02

[[record]]
compound = "COc1ccc(-c2c(O)c3c(OC)c4c(cc3oc2=O)OC(C)(C)C=C4)cc1"
assay_readout = "normalized growth"
quantitative_readout = 0.958

[[record]]
compound = "Cn1c(=O)[nH]c2ncn(C)c2c1=O"
assay_readout = "normalized growth"
quantitative_readout = 1

[[record]]
compound = "COc1cc(O)c2c(c1)C(=O)c1cc(C)cc(O)c1C2=O"
assay_readout = "normalized growth"
quantitative_readout = 0.993

[[record]]
compound = "O=C1NS(=O)(=O)c2ccccc21"
assay_readout = "normalized growth"
quantitative_readout = 0.998

[[record]]
compound = "Cn1cnc2c1c(=O)[nH]c(=O)n2C"
assay_readout = "normalized growth"
quantitative_readout = 1.01


Inquiry: Find the measured normalized growth of COc1cc2c(cc1OC)C(C)NCC2 (centres undefined) and report it.
Reply text: 0.976

Inquiry: Query normalized growth for Cc1cc(O)c2c(c1)C(=O)c1cc(O)cc(O)c1C2=O
Reply text: 0.635

Inquiry: Give me measured normalized growth, please, for this compound: Cn1c(=O)[nH]c2nc[nH]c2c1=O
Reply text: 0.995

Inquiry: For the compound CC1(C)CC23C(=O)CCC(O)C2(C)CCC13 (centres undefined) , give its reported normalized growth.
Reply text: 1.02

Inquiry: Specify normalized growth for CC(=O)CCCCn1c(=O)c2c(ncn2C)n(C)c1=O and stop.
Reply text: 1.01

Inquiry: Output measured normalized growth for this item: C[N+]12CCC(CC1)C(OC(=O)C(O)(c1ccccc1)c1ccccc1)C2 (centres undefined)
Reply text: 0.971

Inquiry: Note normalized growth for the compound shown: COC(=O)C(O)[C@H]1C(C)(C)[C@@H](OC(C)=O)[C@@H]2CC3=C4CC(=O)O[C@@H](c5ccoc5)[C@]4(C)CCC3[C@@]1(C)C2=O (some centres undefined)
Reply text: 1.01

Inquiry: Please list normalized growth recorded for the compound CC(C)N1C(=O)c2ccccc2NS1(=O)=O
Reply text: 0.997

Inquiry: Give recorded normalized growth. CCCC(=O)Nc1ccc(OCC(O)CNC(C)C)c(C(C)=O)c1 (centres undefined)
Reply text: 1.02

====

test: chemical genetic growth profiling, strain panel (AID 1159580);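 also: tested at 20 µM; growth read once vehicle control cultures reached saturation at 30 °C; 1 = growth at the plate median or of vehicle wells; lower values mean less growth of the strain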; conditions: S. cerevisiae deletion strains, growth OD, locus YBR135W, strain CKS1, hits give low values
The campaign covered roughly 5,500 compounds. About 2,000 (36%) were called active. Inconclusive results (about 18%) are left out. Some of the results follow.
assay-readout: normalized growth
Returns: the value as a bare number; no unit string appended.

[[record]]
compound = "COc1ccc(OC)c2nc3c(nc12)C(=O)c1ccccc1-3"
quantitative_readout = 0.974

[[record]]
compound = "C=CCC1C(=O)N(S(=O)(=O)c2ccc(Cl)cc2)N=C1CCC (stereo unspecified)"
quantitative_readout = 0.998

[[record]]
compound = "CC(C)Sc1c(Cl)cccc1NC(=O)Nc1cccc(C(F)(F)F)c1"
quantitative_readout = 0.972


Inquiry: Identify measured normalized growth corresponding to COc1ccc(Oc2ccc([N+](=O)[O-])cc2C(=O)O/N=C(/N)c2ccc(C(F)(F)F)cc2)cc1
Reply text: 0.991

Inquiry: Output normalized growth of CC(=O)c1ccc(Sc2ccccc2)c([N+](=O)[O-])c1
Reply text: 0.864

Inquiry: Give normalized growth for the following compound: FC(F)(F)c1c2c(nc3cc(-c4ccco4)nn13)CCC2
Reply text: 0.964
